Data credit: the supplement of paper PMC12764529

Test: folding stability dG unfold from chymotrypsin proteolysis; higher = more stable
Assay Metric: folding stability dG unfold (kcal/mol)
Give the value, in units of kcal/mol, as a plain number.

Recorded folding stability dG unfold, per entry:
# Primary Sequence, folding stability dG unfold [kcal/mol]
measured = [
    ("SAGGSGSTTPETRTEPSPGGTTTEVRTDVHTLPDAETVEITVTRGGRTITLTASPAEAATLRVTPGASAGGS [r8_257_JUSTAS]", -0.614),
    ("SAGGSAGGSAGMMKVRIRVDGKEIEIEVPPGMTVDEIAERLKKEFGKDIEIEVEEVKPEPSAGGSAGGSAGG [r11_805_TrROS_Hall]", 3.17),
    ("SKKPKLKIEIEIPEITNMQPDPDNGKYTMRVPFRIKIEWKDNGKEREVDIPIPMNMTVDDARDQLKDLLKSA [r9_656_TrROS]", 1.57),
]

Given SPWYVRIKLEYPGKEKRIMIPPDESISQIKDNIRDFAREMGLEEPPLDDFKIEDVEVFPDENGMVSIEIKSA [r9_1053_TrROS] , state its recorded folding stability dG unfold.
1.15

Given SAGGGIAEILEIREFEDGVEILILTDDLDDPEIIEELIDEIAEELGLPKEKIRAHIIPADIPPLPDEESAGG [r13_430_TrMRF] , state its recorded folding stability dG unfold.
1.18

Given SAGGSKELKPGDIITFPKSVSEEEIKEKVKELMEKYGIKGIISIEKKSPNSYIVKIEYPDGNPLAISAGGSA [r2_168_JUSTAS] , state its recorded folding stability dG unfold.
1.34

Given SAGGSAGGSATVTVERVGNRLLLSFPDGSYYVAELPGEAEVDLASGKITLPANSRVEPVPLERSAGGSAGGS [r20_158_TrMRF] , state its recorded folding stability dG unfold.
1
